Taken from patent US20080020978A1.

- target-or-system: T1, CGRP1 receptor (CRLR/RAMP1 complex) of human neuroblastoma SK-N-MC cells (human, UniProt Q16602 23-461; O60894 27-148)
- T1 construct: whole, on cells
- T1 sequence (Q16602 23-461, chain 1 of 2): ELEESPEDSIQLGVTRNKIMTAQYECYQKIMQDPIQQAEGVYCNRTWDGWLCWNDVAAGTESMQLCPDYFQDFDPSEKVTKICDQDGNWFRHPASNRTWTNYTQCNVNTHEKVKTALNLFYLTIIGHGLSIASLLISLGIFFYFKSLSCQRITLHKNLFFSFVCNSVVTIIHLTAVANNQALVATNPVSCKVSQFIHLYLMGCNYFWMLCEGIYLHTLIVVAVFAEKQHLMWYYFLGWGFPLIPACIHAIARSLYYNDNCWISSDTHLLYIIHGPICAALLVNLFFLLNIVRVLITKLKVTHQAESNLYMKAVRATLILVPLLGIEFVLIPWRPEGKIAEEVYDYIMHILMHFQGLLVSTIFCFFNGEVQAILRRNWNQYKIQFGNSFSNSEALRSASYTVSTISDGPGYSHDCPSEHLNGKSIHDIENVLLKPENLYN
- T1 sequence (O60894 27-148, chain 2 of 2): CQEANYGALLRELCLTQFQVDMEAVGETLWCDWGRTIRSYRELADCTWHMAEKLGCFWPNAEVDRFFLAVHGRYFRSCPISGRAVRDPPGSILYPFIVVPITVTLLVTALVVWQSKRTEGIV
- experiment-notes: 125I-hαCGRP competition, SK-N-MC membranes
Ends that are not written are not given here.
Please note: Ki exactly at 0.6 nM is not fulfilled. Only values below 0.6 nM get fulfilled.

binder | category-label
WVTHXLAGLLSXSGGVVXKNFVPTDVGPXAF (Ac-WVTH[Cit]LAGLLS[Cit]SGGVV[hArg]KNFVPTDVGP[1-Nal]AF-NH2) [SEQ ID NO 674] | not fulfilled
VTHRLAGLLSRSGGVVKCNFVPTNVGSKAF (VTHRLAGLLSRSGGVVKC^(5 kDa MeO-PEG)NFVPTNVGSKAF-amide) [SEQ ID NO 693] | not fulfilled
Ac-WVTHRLAGLLSRSGGVVKNNFVPTDVGPFAF-NH2 [SEQ ID NO 684] | fulfilled
WVTHRLAGLLSRSGGVVKCNFVPTDVGPFAF-NH2 [SEQ ID NO 689] | not fulfilled
Ac-VTHRLAGLLSRSGGVVRK(20 kDa PEG)NFVPTDVGPFAF-NH2 [SEQ ID NO 230] | fulfilled

Now look at this entry.
Query :: Is the reported Ki for WVTHXLAGLLSXSGGVVXKNFVPTDVGPFAF (Ac-WVTH[Cit]LAGLLS[Cit]SGGVV[hArg]K(20 KPEGald)NFVPTDVGPFAF-NH2) [SEQ ID NO 171] strictly below 0.6 nM?
Result :: not fulfilled
